% scavenging effect against DPPH radicals: recorded values
# Assay Name: DPPH antiradicals assay
# Condition: 62.50 µg·mL^−1
Express it in %; write the number only.

These recorded examples may help you get a feel for the data.
| Compound | Value Unit | Measured Value |
| --- | --- | --- |
| O=C1O[C@H]([C@@H](O)CO)C(O)=C1O [ascorbic acid, reference compound] | % | 56.83 |
| CC(=O)OC1COC(=O)C1C (stereo not shown) | % | 18.5 |
| COC(=O)c1ccc(O)c(OC)c1 [Ph-4, methyl 4-hydroxy-3-methoxybenzoate] | % | 12.06 |

Let us examine a further case.
Challenge: Let me know recorded % scavenging effect against DPPH radicals for CCC(/C=C/C(C)C1CCC2C3CC=C4CC(O)CCC4(C)C3CCC12C)C(C)C (stereo not shown) , thanks.
Response given: 21.33

* * *

# Assay Name: DPPH antiradicals assay
# Condition: 125 µg·mL^−1
Metric Name: % scavenging effect against DPPH radicals (%)
Express it in %; write the number only.

Challenge: Let me know recorded % scavenging effect against DPPH radicals for CCC(/C=C/C(C)C1CCC2C3CC=C4CC(O)CCC4(C)C3CCC12C)C(C)C (stereo not shown) , thanks.
Response given: 34.16

Challenge: Let me know recorded % scavenging effect against DPPH radicals for COC(=O)c1ccc(O)c(OC)c1 [Ph-4, methyl 4-hydroxy-3-methoxybenzoate] , thanks.
Response given: 19.85

Challenge: Let me know recorded % scavenging effect against DPPH radicals for CC(=O)OC1COC(=O)C1C (stereo not shown) , thanks.
Response given: 29.66

Challenge: Let me know recorded % scavenging effect against DPPH radicals for O=C1O[C@H]([C@@H](O)CO)C(O)=C1O [ascorbic acid, reference compound] , thanks.
Response given: 62.33

* * *

IC50 against ABTS radicals: recorded values
# Assay Name: ABTS antiradicals assay
Remember to put the unit after the number in your answer.

These recorded examples may help you get a feel for the data.
| Compound | Metric Name | Measured Value |
| --- | --- | --- |
| CCC(/C=C/C(C)C1CCC2C3CC=C4CC(O)CCC4(C)C3CCC12C)C(C)C (centres unmarked) | IC50 against ABTS radicals | 160 µg/mL |
| CC(=O)OC1COC(=O)C1C (centres unmarked) | IC50 against ABTS radicals | 320 µg/mL |
| COc1cc(/C=C/c2ccccc2)oc(=O)c1 [Ph-6, (E)-4-methoxy-6-styryl-2H-pyran-2-one] | IC50 against ABTS radicals | 550 µg/mL |

Challenge: Let me know recorded IC50 against ABTS radicals for COC(=O)c1ccc(O)c(OC)c1 [Ph-4, methyl 4-hydroxy-3-methoxybenzoate] , thanks.
Response given: 610 µg/mL

Challenge: Let me know recorded IC50 against ABTS radicals for CCOc1cc(C(C)=O)c2cc(OC)ccc2c1 , thanks.
Response given: 350 µg/mL

* * *

% inhibition against ABTS radicals: recorded values
# Assay Name: ABTS antiradicals assay
# Condition: 1000 µg·mL^−1
Express it in %; write the number only.

These recorded examples may help you get a feel for the data.
| Molecule | Measured Value |
| --- | --- |
| CC(=O)OC1COC(=O)C1C (centres unmarked) | 67.16 |
| COC(=O)c1ccc(O)c(OC)c1 [Ph-4, methyl 4-hydroxy-3-methoxybenzoate] | 53.66 |
| CCC(/C=C/C(C)C1CCC2C3CC=C4CC(O)CCC4(C)C3CCC12C)C(C)C (centres unmarked) | 80.63 |
| CCOc1cc(C(C)=O)c2cc(OC)ccc2c1 | 69.16 |

Let us examine a further case.
Challenge: Let me know recorded % inhibition against ABTS radicals for COc1cc(/C=C/c2ccccc2)oc(=O)c1 [Ph-6, (E)-4-methoxy-6-styryl-2H-pyran-2-one] , thanks.
Response given: 61
